Source: a melting point compilation (Tetko et al.; mined from patent text by program, amines drawn as free bases though some values may be those of a salt)

property.name: melting point

compound | property.name | readout.value
CC(C)=CCN1CC(=O)Nc2cc(S(=O)(=O)Oc3ccccc3)ccc21 | melting point | 132 °C

Prompt: In one line, give reported melting point of the entry "COC(=O)Nc1cccc2c1C(=O)c1ccccc1C2=O" .
Response: 214 °C

###

property.name: melting point

Observe how each entry below is paired with its result.
molecule | melting point
Cc1cc(Br)nc2c1OCC(=O)N2 | 174 °C
CC12CC(=O)C3C(CCC4CC(O)CCC43C)C1CCC2C(=O)CCOC(=O)CCl (configuration not stated) | 95 to 97 °C

Prompt: In one line, give reported melting point of the entry "Cc1cccc2nc(NC(=O)c3ccc(C(C)(C)C(=O)O)cc3)cn12" .
Response: 282 to 283 °C

Prompt: Fill in melting point for record "c1ccc2c(c1)CCc1c-2noc1N1CCN(Cc2c[nH]c3ncccc23)CC1"
Response: 248 to 250 °C

Prompt: Identify measured melting point corresponding to "O=[N+]([O-])c1ccc(CP2(=O)OCCCCO2)cc1"
Response: 136 to 137 °C

Prompt: Read the entry "COc1ccc(-n2nc(Sc3cc(C)ccc3C)c(C)c(C#N)c2=O)cc1" and write its reported melting point.
Response: 140 to 142 °C

Prompt: For "COc1cc2c(cc1Nc1ncc(Cl)c(N[C@H]3[C@@H](C(N)=O)[C@@H]4C=C[C@H]3C4)n1)CCN(C[C@H](O)C(F)(F)F)CC2" , write its melting point.
Response: 120 to 126 °C

###

property.name: melting point (°C)

line.notation | melting point, °C
CCCC(=O)N[C@H]1CC[C@H](CCN2CCN(c3nccc4c3CCO4)CC2)CC1 | 191
NS(=O)(=O)c1ccc(-n2nc(CCCNC(=O)Nc3cccc(C(F)(F)F)c3)cc2-c2ccccc2)cc1 | 176

###

Residues, ends and D or L forms follow the SMILES beside them. *: point of attachment. Boc = CC(C)(C)OC(=O)*
property.name: melting point

compound | melting point
COC(=O)C(Cc1ccccc1)NC(=O)C(Cc1ccccc1)NC(=O)C(CC(N)=O)NC(=O)CNC(=O)OC(C)(C)C (stereo not drawn) (Boc-GNFF-OMe; configuration not given here) | 211 to 214 °C
CC(=O)NC[C@H]1CN(c2cc(F)c(N3CCSCC3)c(F)c2)C(=O)O1 | 187 to 188 °C

Proceeding to the next compound to report its melting point.
Prompt: Item "CC1(C)CCc2c(-c3ccoc3)nc3sc4c(NCc5ccccn5)ncnc4c3c2C1" : provide melting point
Response: 235 to 236 °C

###

Measured melting point values are reported for all entries that follow.

Some entries whose results are on file:
line.notation | melting point
Cc1oc(Cc2ccccc2)c(C(=O)c2cc(C(C)C)c(O)c(C(C)C)c2)c1C | 138 °C
CCOC(=O)c1c(Cl)nc(-c2ccccc2)c([N+](=O)[O-])c1C(=O)OCC | 65 to 66 °C

Next up:
Prompt: Quick one: give measured melting point for "Nc1nc(=O)[nH]c2cccnc12"
Response: > 300 °C

###

Recorded melting point values for a group of compounds are listed next.

Completed entries (count: 5):
compound | melting point
C[C@@H](c1ccccc1)N1CC[C@@H](C2(N(Cc3ccccc3)Cc3ccccc3)CC2)C1 | 61 to 61.3 °C
CC(=O)N1C(=O)NC2(C1=O)C(=O)N(Cc1ccc(Cl)c(Cl)c1)c1ccccc12 (stereo not drawn) | 185 to 187 °C
CCCCCCCOc1c(OC)cc(N)c2nccc(C)c12 | 68 to 70 °C
Cc1[nH]c(=O)ccc1C(=O)c1cccs1 | 227 to 228 °C
O=Cc1ccnc2c1NC(=O)c1cccnc1N2C1CC1 | 220 to 222 °C

Prompt: Consider the compound "CN(C)CCOc1cc(-c2ccccc2)nn1N" . State its measured melting point.
Response: 80 °C

Prompt: Complete the entry with melting point for "CCCOc1ccc(S(=O)(=O)Nc2ccc3[nH]ncc3c2)cc1-c1nc2cc(N)c([N+](=O)[O-])cc2c(=O)[nH]1"
Response: 261 to 263 °C

Prompt: Please give measured melting point of the following entry: "CC(=O)Nc1nc2ncn(C)c(=S)n2n1"
Response: > 300 °C
